Please respond with reported Biochem EGFR %Inhibition for every item in the list.
- Test system: EGFR (Homo sapiens, UniProt P00533)
- Construct: Add 7 ug A431 cell lysate per well (EGFR source); endogenous in cells; host or cells: A431
- Sequence (P00533 25-1210): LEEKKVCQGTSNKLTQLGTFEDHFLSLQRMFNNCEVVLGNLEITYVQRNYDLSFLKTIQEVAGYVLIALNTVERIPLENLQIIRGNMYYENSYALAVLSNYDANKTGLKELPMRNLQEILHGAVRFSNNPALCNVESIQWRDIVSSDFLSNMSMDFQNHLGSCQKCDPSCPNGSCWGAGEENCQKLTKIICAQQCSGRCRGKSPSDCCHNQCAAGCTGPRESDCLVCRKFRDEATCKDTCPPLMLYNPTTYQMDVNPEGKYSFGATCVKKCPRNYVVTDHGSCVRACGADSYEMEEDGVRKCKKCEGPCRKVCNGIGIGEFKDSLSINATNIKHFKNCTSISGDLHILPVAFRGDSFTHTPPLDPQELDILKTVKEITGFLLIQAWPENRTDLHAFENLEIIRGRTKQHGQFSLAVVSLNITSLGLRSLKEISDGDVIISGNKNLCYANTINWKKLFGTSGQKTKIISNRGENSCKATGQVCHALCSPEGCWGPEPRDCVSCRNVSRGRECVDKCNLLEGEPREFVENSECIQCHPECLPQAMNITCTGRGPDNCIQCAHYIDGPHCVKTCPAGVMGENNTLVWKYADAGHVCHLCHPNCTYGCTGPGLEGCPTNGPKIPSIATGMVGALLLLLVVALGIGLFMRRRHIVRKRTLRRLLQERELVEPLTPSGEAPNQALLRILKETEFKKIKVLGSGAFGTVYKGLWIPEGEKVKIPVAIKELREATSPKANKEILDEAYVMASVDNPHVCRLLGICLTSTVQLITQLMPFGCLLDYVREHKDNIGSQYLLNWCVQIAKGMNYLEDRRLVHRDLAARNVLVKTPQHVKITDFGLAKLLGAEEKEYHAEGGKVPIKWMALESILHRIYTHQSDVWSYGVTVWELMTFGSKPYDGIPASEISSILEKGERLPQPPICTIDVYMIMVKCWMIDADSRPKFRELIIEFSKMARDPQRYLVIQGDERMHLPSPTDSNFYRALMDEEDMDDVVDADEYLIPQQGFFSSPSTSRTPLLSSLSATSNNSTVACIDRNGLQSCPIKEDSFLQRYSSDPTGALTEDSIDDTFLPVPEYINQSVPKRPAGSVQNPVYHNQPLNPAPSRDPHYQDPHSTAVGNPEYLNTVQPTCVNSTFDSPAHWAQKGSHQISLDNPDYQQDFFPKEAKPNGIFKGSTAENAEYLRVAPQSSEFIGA
- Protocol: EGFR ELISA assay (in vitro kinase activity, EGFR captured from A431 cell lysate)
- Type: biochemical
- Design: concentration or dose not given beside the values
// note: answer is a bare numeric in %

Task: Determine its reported Biochem EGFR %Inhibition: Cc1c(Br)ccc2c1C(=CC(c1cccs1)C(F)(F)F)C(=O)N2 (stereo not drawn)
Output: -6.5

Task: Determine its reported Biochem EGFR %Inhibition: `Cc1cc(C=C2C(=O)Nc3ccc(I)cc32)[nH]n1`
Output: 20.4

Task: Determine its reported Biochem EGFR %Inhibition: `Cc1[nH]c(C=C2C(=O)Nc3ccc(I)cc32)c(Br)c1Br`
Output: 82.7

Task: Determine its reported Biochem EGFR %Inhibition: `CCCCN(CCCC)c1ccc(C=C2C(=O)Nc3ccc(S(=O)(=O)NC)cc32)cc1`
Output: -0.6

Task: Determine its reported Biochem EGFR %Inhibition: `CNS(=O)(=O)c1ccc2c(c1)C(=Cc1ccc[nH]1)C(=O)N2`
Output: 6.8

Task: Determine its reported Biochem EGFR %Inhibition: `Cc1c(Br)ccc2c1C(=Cc1cc(Br)c(O)c(C(C)(C)C)c1)C(=O)N2`
Output: 17.4

Task: Determine its reported Biochem EGFR %Inhibition: `COC(=O)c1[nH]c(C)c(C=C2C(=O)Nc3ccc(CCCl)cc32)c1C(=O)OC`
Output: -21.3

Task: Determine its reported Biochem EGFR %Inhibition: `CC(C)(C)c1cc(C=C2C(=O)Nc3ccc(S(=O)(=O)Nc4ccc(C(F)(F)F)cc4)cc32)cc(C(C)(C)C)c1O`
Output: 32.1

Task: Determine its reported Biochem EGFR %Inhibition: `CCc1c(C)[nH]c(C=C2C(=O)Nc3ccc(S(=O)(=O)NC)cc32)c1C`
Output: 18.5

Task: Determine its reported Biochem EGFR %Inhibition: `CN1C(=O)C(=C2C(=O)Nc3c(Br)cc(Br)cc32)c2ccccc21`
Output: 26.3

Task: Determine its reported Biochem EGFR %Inhibition: `CNS(=O)(=O)c1ccc2c(c1)C(=Cc1ccc(O)c(C)c1O)C(=O)N2`
Output: 6.0

Task: Determine its reported Biochem EGFR %Inhibition: `CC(C)(C)c1cc(C=C2C(=O)Nc3c(Br)cc(Br)cc32)ccc1O`
Output: 28.0

Task: Determine its reported Biochem EGFR %Inhibition: `CC(C)(C)c1cc(C=C2C(=O)Nc3ccc(S(=O)(=O)N4CCOCC4)cc32)cc(C(C)(C)C)c1OCc1ccccc1`
Output: 84.6

Task: Determine its reported Biochem EGFR %Inhibition: `Cc1cn(C)cc1C=C1C(=O)Nc2ccc(I)cc21`
Output: 6.6

Task: Determine its reported Biochem EGFR %Inhibition: `CNS(=O)(=O)c1ccc2c(c1)C(=Cc1ccc(O)cc1O)C(=O)N2`
Output: 4.9

Task: Determine its reported Biochem EGFR %Inhibition: `O=C1Nc2ccc(S(=O)(=O)N3CCOCC3)cc2C1=Cc1cc(O)ccc1O`
Output: 74.1

Task: Determine its reported Biochem EGFR %Inhibition: `O=C1Nc2ccc(S(=O)(=O)N3CCOCC3)cc2C1=Cc1ccc([N+](=O)[O-])o1`
Output: -3.9

Task: Determine its reported Biochem EGFR %Inhibition: `O=C1Nc2ccc(I)cc2C1=Cc1coc2ccc(Cl)cc2c1=O`
Output: 25.0

Origin of the recorded values: patent EP1247803A2
